Molecular target: Histone deacetylase 8 (Homo sapiens)
Sequence (Q9BY41 whole entry): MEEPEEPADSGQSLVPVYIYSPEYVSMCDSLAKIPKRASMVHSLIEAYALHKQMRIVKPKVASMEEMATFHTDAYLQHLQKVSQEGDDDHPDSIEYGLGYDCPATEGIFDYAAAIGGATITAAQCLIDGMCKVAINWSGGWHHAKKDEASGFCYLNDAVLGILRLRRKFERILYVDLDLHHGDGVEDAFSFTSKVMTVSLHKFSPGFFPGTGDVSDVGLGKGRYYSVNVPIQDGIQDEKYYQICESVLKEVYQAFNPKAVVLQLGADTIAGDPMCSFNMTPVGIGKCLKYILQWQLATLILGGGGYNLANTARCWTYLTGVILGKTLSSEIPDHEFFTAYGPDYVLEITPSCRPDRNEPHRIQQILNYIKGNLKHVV
Test: Inhibition of human recombinant HDAC8 by fluorimetry

{"INPUT_SMILES": "O=C(N[C@@H](CCCCCB(O)O)C(=O)Nc1cccc(-c2ccccc2)c1)c1ccccc1", "IC50": "> 100 µM"}
{"INPUT_SMILES": "O=C(N[C@@H](CCCCCB(O)O)C(=O)Nc1cccc(-c2ccccc2)c1)c1cccnc1", "IC50": "23 µM"}
{"INPUT_SMILES": "O=C(N[C@H](CCCCCB(O)O)C(=O)Nc1cccc(-c2ccccc2)c1)c1cccnc1", "IC50": "> 100 µM"}
{"INPUT_SMILES": "O=C(N[C@H](CCCCCB(O)O)C(=O)Nc1cccc(-c2ccccc2)c1)c1ccccc1", "IC50": "> 100 µM"}
{"INPUT_SMILES": "O=C(N[C@@H](CCCCCB(O)O)C(=O)Nc1cccc(-c2ccccc2)c1)c1cncs1", "IC50": "6.6 µM"}
{"INPUT_SMILES": "O=C(N[C@H](CCCCCB(O)O)C(=O)Nc1cccc(-c2ccccc2)c1)c1cncs1", "IC50": "> 100 µM"}

###

Test system: MKN-45
Test: cells
Format: functional
Conditions: Homo sapiens, MKN-45, 48 h
Description: Growth inhibition of human MKN45 cells after 48 hrs by sulforhodamine B assay

{"INPUT_SMILES": "O=C(N[C@@H](CCCCCB(O)O)C(=O)Nc1cccc(-c2ccccc2)c1)c1cncs1", "TARGET": "MKN-45", "ENDPOINT_UNIT": "µM", "GI50": 3.5}
{"INPUT_SMILES": "O=C(N[C@@H](CCCCCB(O)O)C(=O)Nc1cccc(-c2ccccc2)c1)c1ccccc1", "TARGET": "MKN-45", "ENDPOINT_UNIT": "µM", "GI50": 9.3}
{"INPUT_SMILES": "O=C(N[C@H](CCCCCB(O)O)C(=O)Nc1cccc(-c2ccccc2)c1)c1cncs1", "TARGET": "MKN-45", "ENDPOINT_UNIT": "µM", "GI50": 21}
{"INPUT_SMILES": "O=C(N[C@@H](CCCCCB(O)O)C(=O)Nc1cccc(-c2ccccc2)c1)c1cccnc1", "TARGET": "MKN-45", "ENDPOINT_UNIT": "µM", "GI50": 5.5}
